Target or test system: T1, human KDR (human, UniProt P35968 20-1356)
T1 construct: whole, on cells; also called VEGFR2; endogenously-expressed KDR in HUVEC cells
T1 sequence (P35968 20-1356): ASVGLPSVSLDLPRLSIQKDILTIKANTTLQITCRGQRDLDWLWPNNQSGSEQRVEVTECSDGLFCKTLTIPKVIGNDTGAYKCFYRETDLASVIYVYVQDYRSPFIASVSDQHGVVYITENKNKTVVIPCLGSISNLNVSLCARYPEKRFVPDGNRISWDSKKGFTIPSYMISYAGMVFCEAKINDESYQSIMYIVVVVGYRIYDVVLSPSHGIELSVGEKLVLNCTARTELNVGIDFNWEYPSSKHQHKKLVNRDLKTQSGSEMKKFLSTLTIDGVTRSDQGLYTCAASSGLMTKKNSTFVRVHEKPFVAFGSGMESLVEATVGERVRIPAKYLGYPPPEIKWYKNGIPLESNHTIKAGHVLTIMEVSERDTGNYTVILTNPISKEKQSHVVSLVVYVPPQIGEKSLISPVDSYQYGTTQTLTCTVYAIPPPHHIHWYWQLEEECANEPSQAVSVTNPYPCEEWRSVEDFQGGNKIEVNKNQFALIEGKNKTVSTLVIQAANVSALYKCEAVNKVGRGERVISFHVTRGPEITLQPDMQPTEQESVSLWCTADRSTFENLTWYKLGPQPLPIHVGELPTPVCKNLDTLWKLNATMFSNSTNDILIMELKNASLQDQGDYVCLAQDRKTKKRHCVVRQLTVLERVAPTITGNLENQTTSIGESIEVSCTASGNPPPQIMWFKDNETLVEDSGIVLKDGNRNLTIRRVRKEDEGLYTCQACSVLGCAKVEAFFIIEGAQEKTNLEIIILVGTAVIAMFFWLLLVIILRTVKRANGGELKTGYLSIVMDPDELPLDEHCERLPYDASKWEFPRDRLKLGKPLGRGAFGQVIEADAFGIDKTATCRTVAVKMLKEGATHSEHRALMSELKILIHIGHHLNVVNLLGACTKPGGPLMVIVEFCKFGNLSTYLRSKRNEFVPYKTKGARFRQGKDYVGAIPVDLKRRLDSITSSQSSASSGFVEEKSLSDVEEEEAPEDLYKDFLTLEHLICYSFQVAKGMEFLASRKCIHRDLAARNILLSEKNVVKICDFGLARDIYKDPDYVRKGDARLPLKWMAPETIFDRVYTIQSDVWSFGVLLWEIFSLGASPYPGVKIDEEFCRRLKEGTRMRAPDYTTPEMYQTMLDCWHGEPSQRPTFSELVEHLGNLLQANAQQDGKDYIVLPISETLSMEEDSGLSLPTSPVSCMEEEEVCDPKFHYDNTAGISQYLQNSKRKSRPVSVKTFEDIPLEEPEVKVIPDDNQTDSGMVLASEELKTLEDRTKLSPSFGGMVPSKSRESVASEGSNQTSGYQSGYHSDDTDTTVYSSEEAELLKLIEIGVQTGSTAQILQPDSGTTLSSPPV
Experimental protocol: FACS competition on 293T/human KDR transfectants; antibody 5 ug/mL first, then competitor VEGF165 50 ng/mL; bound VEGF165 detected
Readout label: FACS Geometric Mean Fluorescence (bound VEGF165)
Could you keep your reply to the number by itself?

33E1 (antibody, V domains shown, Fully human monoclonal antibody from a XenoMouse hybridoma (IgG2 or IgG4 strain), purified) VH: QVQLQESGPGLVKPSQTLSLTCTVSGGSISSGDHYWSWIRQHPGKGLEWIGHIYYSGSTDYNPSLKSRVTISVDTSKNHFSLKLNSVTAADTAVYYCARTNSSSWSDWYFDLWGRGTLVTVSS VL: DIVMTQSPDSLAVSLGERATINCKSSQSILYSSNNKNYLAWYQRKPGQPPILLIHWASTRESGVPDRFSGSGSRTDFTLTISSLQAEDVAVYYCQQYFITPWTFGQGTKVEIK | 147
24B3 (antibody, V domains shown, Fully human monoclonal antibody from a XenoMouse hybridoma (IgG2 or IgG4 strain), purified) VH: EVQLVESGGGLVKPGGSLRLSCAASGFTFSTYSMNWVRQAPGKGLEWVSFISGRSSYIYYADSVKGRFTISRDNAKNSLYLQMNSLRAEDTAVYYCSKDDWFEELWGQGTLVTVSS VL: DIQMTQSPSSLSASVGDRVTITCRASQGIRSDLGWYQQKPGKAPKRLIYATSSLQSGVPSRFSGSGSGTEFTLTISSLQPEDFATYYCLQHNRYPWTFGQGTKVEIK | 97
27A3 (antibody, V domains shown, Fully human monoclonal antibody from a XenoMouse hybridoma (IgG2 or IgG4 strain), purified) VH: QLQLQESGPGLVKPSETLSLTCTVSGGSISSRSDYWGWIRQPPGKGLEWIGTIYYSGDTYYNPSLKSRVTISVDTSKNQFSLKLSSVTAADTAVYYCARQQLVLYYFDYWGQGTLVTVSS VL: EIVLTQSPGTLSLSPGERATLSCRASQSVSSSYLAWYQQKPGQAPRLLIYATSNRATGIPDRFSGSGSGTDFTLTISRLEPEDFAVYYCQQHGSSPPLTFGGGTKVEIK | 118
22B8 (antibody, V domains shown, Fully human monoclonal antibody from a XenoMouse hybridoma (IgG2 or IgG4 strain), purified) VH: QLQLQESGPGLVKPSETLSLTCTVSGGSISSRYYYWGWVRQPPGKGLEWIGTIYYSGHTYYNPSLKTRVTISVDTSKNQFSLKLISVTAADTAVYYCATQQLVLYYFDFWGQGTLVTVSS VL: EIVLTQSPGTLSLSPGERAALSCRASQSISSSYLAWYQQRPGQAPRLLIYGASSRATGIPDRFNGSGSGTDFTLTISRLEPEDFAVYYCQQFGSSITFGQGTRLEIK | 120

Req: Sample 33C3 (antibody, V domains shown, Fully human monoclonal antibody from a XenoMouse hybridoma (IgG2 or IgG4 strain), purified) VH: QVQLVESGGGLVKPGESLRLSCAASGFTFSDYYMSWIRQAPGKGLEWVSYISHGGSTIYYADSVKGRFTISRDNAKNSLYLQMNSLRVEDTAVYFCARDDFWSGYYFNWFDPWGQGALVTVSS VL: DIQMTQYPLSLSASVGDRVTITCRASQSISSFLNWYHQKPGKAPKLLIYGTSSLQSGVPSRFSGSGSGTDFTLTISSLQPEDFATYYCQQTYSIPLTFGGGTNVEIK — what was its FACS Geometric Mean Fluorescence (bound VEGF165)?
Resp: 126

Data provenance: patent US20100260765A1
